Each recorded value in this set is attributed to PubChem BioAssay.

test_system: Epidermal growth factor receptor (Homo sapiens) (UniProt P00533)
Sequence (P00533 whole entry, looked up): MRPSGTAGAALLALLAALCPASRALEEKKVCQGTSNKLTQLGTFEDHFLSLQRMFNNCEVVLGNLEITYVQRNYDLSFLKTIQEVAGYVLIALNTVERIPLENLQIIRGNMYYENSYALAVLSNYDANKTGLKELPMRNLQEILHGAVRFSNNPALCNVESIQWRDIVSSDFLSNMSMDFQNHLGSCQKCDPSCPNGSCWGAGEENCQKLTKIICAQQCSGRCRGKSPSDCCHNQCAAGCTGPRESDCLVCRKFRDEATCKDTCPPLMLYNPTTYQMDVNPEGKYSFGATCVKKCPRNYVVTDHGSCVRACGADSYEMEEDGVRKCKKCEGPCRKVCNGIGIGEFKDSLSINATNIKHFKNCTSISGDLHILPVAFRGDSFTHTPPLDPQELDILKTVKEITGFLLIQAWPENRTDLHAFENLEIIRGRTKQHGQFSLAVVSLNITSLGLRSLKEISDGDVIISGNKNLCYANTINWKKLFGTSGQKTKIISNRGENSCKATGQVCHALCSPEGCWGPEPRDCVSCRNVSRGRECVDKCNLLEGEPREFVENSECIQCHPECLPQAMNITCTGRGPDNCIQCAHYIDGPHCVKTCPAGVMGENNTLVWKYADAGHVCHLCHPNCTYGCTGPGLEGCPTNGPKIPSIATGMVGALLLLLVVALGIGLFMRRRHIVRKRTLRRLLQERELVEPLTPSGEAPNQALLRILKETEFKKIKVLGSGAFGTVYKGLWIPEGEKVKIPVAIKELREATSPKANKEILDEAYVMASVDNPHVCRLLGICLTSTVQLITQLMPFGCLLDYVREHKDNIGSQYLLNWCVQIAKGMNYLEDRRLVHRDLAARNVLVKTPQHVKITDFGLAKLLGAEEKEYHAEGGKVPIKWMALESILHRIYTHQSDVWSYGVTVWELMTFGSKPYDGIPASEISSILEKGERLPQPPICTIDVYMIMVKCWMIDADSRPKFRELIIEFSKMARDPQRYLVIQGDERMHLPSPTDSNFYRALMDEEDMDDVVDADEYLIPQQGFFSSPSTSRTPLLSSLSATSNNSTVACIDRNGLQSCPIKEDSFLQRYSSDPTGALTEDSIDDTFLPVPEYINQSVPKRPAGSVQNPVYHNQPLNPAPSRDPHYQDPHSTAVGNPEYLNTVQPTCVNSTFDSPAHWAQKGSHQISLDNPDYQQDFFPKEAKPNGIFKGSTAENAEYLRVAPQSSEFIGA
experiment_notes: EGFR binders on small-molecule microarrays, primary screen, biochemical, small-molecule microarray, 635 nm fluorescence (AID 1104);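 also: score merges 667 nm emission intensity with spot signal to noise over triplicate slides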
condition_parameters: EGFR binding, higher = more signal
For each entry below, report its composite z-score value.
Give bare numbers.

Consider the reported composite z-score for these compounds:
compound	experimental_readout	reported_measurement
COC(=O)CC=C1c2ccccc2[C@H](OC)[C@H]1C	composite z-score	0.33
CC(C)(C)N1C(=O)[C@H]2[C@H]3[C@H](O)[C@H](O)CC(=NOC[C@@H](O)COCc4ccco4)[C@H]3CC[C@H]2C1=O	composite z-score	-0.284
C#CCCCON=C1C[C@@H](O)[C@@H](O)[C@@H]2[C@@H]3C(=O)N(C4CCCCC4)C(=O)[C@@H]3CC[C@@H]12	composite z-score	0.336

I would be grateful if you could provide composite z-score for each of the following entries.
1. O=C1C=C[C@@H](O)[C@@H]2[C@@H]3C(=O)N(Cc4ccc5c(c4)OCO5)C(=O)[C@@H]3CC[C@@H]12
2. CCOC(=O)[C@H](Cc1ccccc1)NC(=O)CCC1CC(OC(=O)NCc2ccc3c(c2)OCO3)CC2(CCCC(COC(=O)NCCOC)O2)O1 (stereo partly specified)
3. CCOC(=O)[C@H](CC(C)C)NC(=O)CCC1CC(OC(=O)NCCc2ccc(F)cc2)CC2(CCCC(COC(=O)NCCOC)O2)O1 (stereo partly specified)
4. CCOC(=O)[C@H](Cc1ccccc1)NC(=O)CCC1CC(OC(=O)NCc2ccc3c(c2)OCO3)CC2(CCCC(COC(=O)NCCOc3ccccc3)O2)O1 (stereo partly specified)
5. CCN1C(=O)[C@H]2[C@H]3[C@H](O)[C@H](O)CC(=NOCC=C(C)CCC=C(C)C)[C@@H]3CC[C@H]2C1=O
6. CCOC(=O)CCN1C(=O)[C@H]2[C@H]3[C@H](O)[C@H](O)CC(=NNC(=O)OCC)[C@H]3CC[C@H]2C1=O
7. CC#CCOCCC=C1c2ccccc2[C@@H](OC)[C@@H]1C
8. O=C1C2=CC[C@H]3C(=O)N(c4ccc(F)cc4F)C(=O)[C@H]3[C@H]2[C@H](O)[C@@H]2O[C@H]12

[0.523, 0.584, 0.633, 0.628, 1.53, 0.459, 0.0594, 0.347]

Your task in this section: give composite z-score for each listed record.
1. CCN1C(=O)[C@H]2[C@H]3[C@H](O)[C@H](O)CC(=NOC(C)CN4CCCc5nc(C)c(C)cc54)[C@@H]3CC[C@H]2C1=O (stereo partly specified)
2. O=C1C[C@@H](O)[C@@H](O)[C@@H]2[C@@H]3C(=O)N(c4ccc(F)cc4F)C(=O)[C@@H]3CC[C@H]12
3. CC(CCC(=O)OC[C@H]1O[C@H](C#Cc2ccccc2)C=C[C@@H]1Oc1ccc(C)cc1)=NOC(C)CN1CCCCc2nc(C)c(C)cc21 (stereo partly specified)
4. COC(=O)[C@H](C)NC(=O)CC=C[C@@H](C)[C@@H]1C=C[C@H](O)[C@@H](CO)O1
5. CC(C)CON=C1[C@H]2CCn3c(=O)n(C)c(=O)n3[C@H]2[C@H](O)[C@@H]2O[C@H]12

[0.692, 0.394, -0.598, 0.643, 0.377]
